This collection of values is drawn from patent US20260070917A1.

# target system: CDK2 (Homo sapiens, UniProt P24941)
# Construct: host or cells: HEK293-CDK2-Hibit
# assay overview: HiBit Assay Protocol for CDK2 (HIBIT protein quantification, degradation)
# Format: cell-based
# condition: HEK293-CDK2-Hibit cells, compound treatment for 6 hours, ABS DC50
# Method: HiBit Assay Protocol for CDK2 • 1. The culture medium for HEK293-CDK2-Hibit cells was prepared using DMEM with 10% FBS. • 2. Cells were cultivated in T-75 flasks in a cell culture incubator set at 37° C., 5% CO2, 95% relative humidity. […] Cells were harvested from flask into cell culture medium and then the cell number was counted. […] • 1. […] 20 μL of HiBit reagent was added into each well and the plates were spinned at room temperature at 1,000 RPM for 1 minute to be detected. […]
parameter measured: DC50
The number alone won't do; follow it with the unit.

• CC1CCCC1N1C(=O)C2(CC2)c2cnc(Nc3ccc(S(=O)(=O)N(C)CCCN4CCC(c5cccc6c5n(C)c(=O)n6C5CCC(=O)NC5=O)CC4)cc3)nc21 (centres unmarked) = 10 nM
• Cn1nc(N2CCC(=O)NC2=O)c2ccc(C3CCN(Cc4cccc(S(=O)(=O)N5CCC(Nc6ncc7c(n6)N(c6cc(F)ccc6Cl)C(=O)C76CC6)CC5)c4)CC3)cc21 = 8.03 nM
• Cn1nc(N2CCC(=O)NC2=O)c2ccc(C3CCN(Cc4cccc(S(=O)(=O)N5CCC(Nc6ncc7c(n6)N([C@@H]6CCC[C@@H](O)C6)C(=O)C76CC6)CC5)n4)CC3)cc21 = 21.3 nM
• CC(c1cccc(S(=O)(=O)N2CC[C@H](Nc3ncc4c(n3)N([C@@H]3CCC[C@@H](O)C3)C(=O)C43CC3)[C@H](F)C2)c1)N1CCN(c2ccc3c(N4CCC(=O)NC4=O)nn(C)c3c2)C[C@H]1C (some centres unmarked) = 5.54 nM

Next item in the queue.
Query block: Would you mind telling me what DC50 value was observed for CC(C)[C@@H]1CN([C@H](C)c2cccc(S(=O)(=O)N3CC[C@H](Nc4ncc5c(n4)N([C@@H]4CCC[C@@H](O)C4)C(=O)C54CC4)[C@H](F)C3)c2)CCN1c1ccc2c(N3CCC(=O)NC3=O)nn(C)c2c1 ?
Result block: 10.4 nM
